test: NCI Yeast Anticancer Drug Screen. Data for the mlh1 rad18 strain (AID 175); details: S. cerevisiae mlh1 rad18 strain growth inhibition, stronger effect = higher value; at 50.0 µM unless noted
Compounds without any hit were thinned out: in the full panel of roughly 79,000, 15% have a hit.
// reported growth inhibition for each item listed
Give the value, in units of %, as a plain number.

Completed entries (count: 9):
[
  {
    "compound": "Cc1ccc(S(=O)(=O)N/N=C/c2ccoc2)cc1",
    "value_units": "%",
    "growth inhibition": -14.4
  },
  {
    "compound": "C=CC(C)(C)c1c(OC)cc(-c2ccccc2)oc1=O",
    "value_units": "%",
    "growth inhibition": -9.9
  },
  {
    "compound": "CCOC(=O)C1=C(C)NC(c2ccco2)=C(C#N)C1c1cccc([N+](=O)[O-])c1 (stereo not given)",
    "value_units": "%",
    "growth inhibition": 70.8
  },
  {
    "compound": "Cc1ccc(NC(=O)Oc2ccc(C(C)(C)C)cc2)cc1NC(=O)Oc1ccc(C(C)(C)C)cc1",
    "value_units": "%",
    "growth inhibition": -18.6
  },
  {
    "compound": "ClC(=Nc1cccc2ccccc12)N(c1ccccc1)c1ccccc1",
    "value_units": "%",
    "growth inhibition": -4.05
  },
  {
    "compound": "CO[C@@H]1C2=CC=CC=C[C@H]2n2c(=O)n(-c3ccccc3)c(=O)n21",
    "value_units": "%",
    "growth inhibition": 13.2
  },
  {
    "compound": "CCOCC(Br)C(OCC)OCC (stereo not given)",
    "value_units": "%",
    "growth inhibition": 26.1
  },
  {
    "compound": "COc1ccc(NS(=O)(=O)c2ccc(NC(CNC(C)S(=O)(=O)O)S(=O)(=O)O)cc2)cc1 (stereo not given)",
    "value_units": "%",
    "growth inhibition": 36.5
  },
  {
    "compound": "CC1(O)CC(=O)c2c(cc3ccc(-c4c5c(c(O)c6c(O)cccc46)C(=O)CC(C)(O)C5)c(O)c3c2O)C1 (stereo not given)",
    "value_units": "%",
    "growth inhibition": 9.95
  }
]

Specify measured growth inhibition for CNCCc1cn(C2OC(CO)C(O)C(O)C2O)cn1 (stereo not given) .
-13.3
